Ref: PubChem BioAssay (NCI)

system: LOX IMVI melanoma; test: NCI-60 one-dose screen, 48 h; conditions: 10 µM unless noted
About 83,000 compounds went through this panel and 20% of them were active in at least one assay; those are over-represented in the sample as a whole. The source made the active and inactive calls. How the source made its calls: active means growth percent below 10; inactive means the rest.
Possible outcomes: yes (1) for active, no (0) for inactive

Compound	Class name
CO[C@H](/C(C)=C/C=C/C(C)=C/c1coc(C)n1)[C@H](C)[C@H]1C[C@@H](O)[C@@]2(C)O[C@H]2/C=C/[C@@H](C)[C@@H]2C[C@@H](CC(=O)O2)C[C@H]2O[C@@H]2C(=O)O1	no (0)
CC[C@@]1(O)C(=O)OCc2c1cc1n(c2=O)Cc2cc3ccccc3nc2-1	yes (1)
CCCCCCCCCCCC1CCCC(C)N1 (stereo not given)	no (0)
CC1=C(CO)C2=C(C)C3(CC3)[C@@](C)(O)C(=O)C2=C1	no (0)
CN1CCN(c2ccc([N+](=O)[O-])c3no[n+]([O-])c23)CC1	yes (1)
CC1=C2C(=O)[C@H]3[C@@H](CC=C4C[C@@H](O)CC[C@@]43C)[C@@H]2CC[C@]12O[C@@H]1C[C@H](C)CN[C@H]1[C@H]2C	no (0)
CC[n+]1c(-c2ccccc2)c2cc(N)ccc2c2ccc(N)cc21	no (0)
Cc1cc(N=Nc2ccccc2C)ccc1N	no (0)
CC[C@](O)(C(=O)O)c1cc2n(c(=O)c1CO)Cc1cc3ccccc3nc1-2	yes (1)
COc1ccc(OC)c(/C=C/[N+](=O)[O-])c1	yes (1)

----------
test system: BT-549 breast; experiment: NCI-60 one-dose screen, 48 h; conditions: 10 µM unless noted
The panel holds about 83,000 compounds, 20% with a hit somewhere; the sample as a whole holds those more often. Active and inactive are the calls of the source. The calls were made as follows: active = growth percent below 10; inactive = the rest.
Possible outcomes: T = active, F = inactive

Compound	Class name
C[C@]12CC[C@H](O)CC1=CC[C@@H]1[C@@H]2CC[C@]2(C)C(=O)CC[C@@H]12	F
COC1=C(C)C(=O)C2=C(C1=O)C(CO)N1C(C#N)C3CC4C(C1C2N1CCOC41)N3C (stereo not drawn)	T
NCCc1ccc(OCc2ccccc2)c(OCc2ccccc2)c1	F

----------
test system: RPMI-8226 leukemia; assay: NCI-60 one-dose screen, 48 h (100 = growth as untreated, 0 = no growth, -100 = all killed); details: 10 µM unless noted
This is part of a sample that, as a whole, favours compounds with a hit. Of some 83,000 tested, about 20% had one in any assay.
Entries annotated with measured growth

Compound	growth (%)
CC1=C(CO)C2=C(C)C3(CC3)[C@@](C)(O)C(=O)C2=C1	80.2
Cc1ccc(C(=O)OC(C(=O)O)C(OC(=O)c2ccc(C)cc2)C(=O)O)cc1 (centres undefined) (tested in a mixture with another compound)	-3.01
CN1CCN(c2ccc([N+](=O)[O-])c3no[n+]([O-])c23)CC1	-36.6
CCOC(=O)C(NC(=O)C(Cc1ccc(N(CCCl)CCCl)cc1)NC(C)=O)C(C)C (centres undefined)	85.1
Cc1cc(N=Nc2ccccc2C)ccc1N	17.5
CC1=C2C(=O)[C@H]3[C@@H](CC=C4C[C@@H](O)CC[C@@]43C)[C@@H]2CC[C@]12O[C@@H]1C[C@H](C)CN[C@H]1[C@H]2C	92
CCC1(O)CC(OC2CC(N(C)C)C(OC3CC4OC5CC(=O)C(C)OC5OC4C(C)O3)C(C)O2)c2c(cc3c(c2O)C(=O)c2c(O)ccc(O)c2C3=O)C1C(=O)OC (centres undefined)	-53
CC[n+]1c(-c2ccccc2)c2cc(N)ccc2c2ccc(N)cc21	7.63
O=C1c2ccccc2C(=O)C(Cl)C1Cl (centres undefined)	31.1
